target: Human recombinant PTP-1B (Homo sapiens, UniProt P18031); construct: Human recombinant PTP-1B, containing amino acids 1-321, fused to GST enzyme; GST (glutathione S-transferase); assay: Assay for PTP-1B Activity (pNPP substrate); format: biochemical; settings: human recombinant PTP-1B (1-321) GST fusion, 2 mM pNPP, pH 7.4, 30° C., 20 min; read-out: Activity Code (IC50 range)
Sequence (P18031 1-321): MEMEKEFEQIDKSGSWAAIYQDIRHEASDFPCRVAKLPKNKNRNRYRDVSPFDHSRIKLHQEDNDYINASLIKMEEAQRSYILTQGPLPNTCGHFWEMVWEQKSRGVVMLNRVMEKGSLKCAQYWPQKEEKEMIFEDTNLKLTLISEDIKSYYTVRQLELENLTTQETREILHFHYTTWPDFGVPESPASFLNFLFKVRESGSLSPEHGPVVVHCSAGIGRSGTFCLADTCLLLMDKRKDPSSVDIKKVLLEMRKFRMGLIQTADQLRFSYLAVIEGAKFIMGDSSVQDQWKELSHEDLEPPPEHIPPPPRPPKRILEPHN
IC50 for assorted compounds

Solved entries:
[
  {
    "compound": "CC(C)OC(=O)OC(C)OC(=O)c1ccc(-c2cn(Cc3ccccc3)c(=O)n2Cc2ccc(C(F)(F)P(=O)(O)OC(C)OC(=O)OC(C)C)c(Br)c2)cc1 (centres unmarked)",
    "measurement.target": "Human recombinant PTP-1B (Homo sapiens, UniProt P18031)",
    "IC50": "2500 to 25000 nM"
  },
  {
    "compound": "CS(=O)(=O)c1ccc(-c2cn(C3CC3)c(=O)n2Cc2ccc(C(F)(F)P(=O)(O)O)c(Br)c2)cc1",
    "measurement.target": "Human recombinant PTP-1B (Homo sapiens, UniProt P18031)",
    "IC50": "100 to 249 nM"
  },
  {
    "compound": "CS(=O)(=O)c1ccc(-c2cn(Cc3cccc(N)c3)c(=O)n2Cc2ccc(C(F)(F)P(=O)(O)O)c(Br)c2)cc1",
    "measurement.target": "Human recombinant PTP-1B (Homo sapiens, UniProt P18031)",
    "IC50": "< 99 nM"
  },
  {
    "compound": "CC(C)(C)C(=O)OCOP(=O)(OCOC(=O)C(C)(C)C)C(F)(F)c1ccc(Cn2c(-c3ccc(C#N)cc3)cn(Cc3ccccc3)c2=O)cc1Br",
    "measurement.target": "Human recombinant PTP-1B (Homo sapiens, UniProt P18031)",
    "IC50": "> 25000 nM"
  },
  {
    "compound": "O=c1n(Cc2ccc(C(F)(F)P(=O)(O)O)c(Br)c2)ccn1Cc1ccc(C(F)(F)P(=O)(O)O)c(Br)c1",
    "measurement.target": "Human recombinant PTP-1B (Homo sapiens, UniProt P18031)",
    "IC50": "< 99 nM"
  }
]

State the recorded IC50 for this entry: O=C(O)c1cccc(-c2cn(C3CC3)c(=O)n2Cc2ccc(C(F)(F)P(=O)(O)O)c(Br)c2)c1
250 to 2500 nM

State the recorded IC50 for this entry: CC(C)(Oc1ccc(-c2cn(C3CC3)c(=O)n2Cc2ccc(C(F)(F)P(=O)(O)O)c(Br)c2)cc1)C(=O)O
< 99 nM

State the recorded IC50 for this entry: CS(=O)(=O)c1ccc(Cn2cc(-c3ccccc3)n(Cc3ccc(C(F)(F)P(=O)(O)O)c(Br)c3)c2=O)cc1
250 to 2500 nM

State the recorded IC50 for this entry: O=c1n(Cc2ccccc2)cc(-c2ccc3c(c2)CCCC3)n1Cc1ccc(C(F)(F)P(=O)(O)O)c(Br)c1
250 to 2500 nM

State the recorded IC50 for this entry: CCOC(=O)c1ccc(-c2cn(Cc3ccccc3)c(=O)n2Cc2ccc(C(F)(F)P(=O)(O)O)c(Br)c2)cc1
250 to 2500 nM

State the recorded IC50 for this entry: COC(=O)c1ccc(Cn2c(=O)n(Cc3ccc(C(F)(F)P(=O)(O)O)c(Br)c3)c3ccccc32)cc1
250 to 2500 nM

State the recorded IC50 for this entry: COc1cccc(Cn2ccn(Cc3ccc(C(F)(F)P(=O)(O)O)c(Br)c3)c2=O)c1
2500 to 25000 nM

State the recorded IC50 for this entry: CNC(=O)c1ccc(-c2cn(Cc3ccccc3)c(=O)n2Cc2ccc(C(F)(F)P(=O)(O)O)c(Br)c2)cc1
250 to 2500 nM

State the recorded IC50 for this entry: COC(=O)c1ccc(-c2cn(Cc3ccccc3)c(=O)n2Cc2ccc(C(F)(F)P(=O)(O)O)c(Br)c2)cc1
100 to 249 nM
